- assay_target: CDK7/cyclinH/MAT1 trimeric complex (Homo sapiens (Human))
- Sequence (P50613 whole entry): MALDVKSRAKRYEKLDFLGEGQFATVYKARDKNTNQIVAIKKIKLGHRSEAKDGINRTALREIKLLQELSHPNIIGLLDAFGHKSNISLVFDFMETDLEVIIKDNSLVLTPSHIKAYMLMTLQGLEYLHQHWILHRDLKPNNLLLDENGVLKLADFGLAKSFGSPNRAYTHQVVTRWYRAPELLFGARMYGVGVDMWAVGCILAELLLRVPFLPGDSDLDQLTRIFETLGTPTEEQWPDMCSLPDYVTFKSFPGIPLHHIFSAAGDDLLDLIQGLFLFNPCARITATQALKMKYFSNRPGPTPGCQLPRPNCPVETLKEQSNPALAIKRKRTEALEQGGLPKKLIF
- Sequence (P51946 whole entry partner): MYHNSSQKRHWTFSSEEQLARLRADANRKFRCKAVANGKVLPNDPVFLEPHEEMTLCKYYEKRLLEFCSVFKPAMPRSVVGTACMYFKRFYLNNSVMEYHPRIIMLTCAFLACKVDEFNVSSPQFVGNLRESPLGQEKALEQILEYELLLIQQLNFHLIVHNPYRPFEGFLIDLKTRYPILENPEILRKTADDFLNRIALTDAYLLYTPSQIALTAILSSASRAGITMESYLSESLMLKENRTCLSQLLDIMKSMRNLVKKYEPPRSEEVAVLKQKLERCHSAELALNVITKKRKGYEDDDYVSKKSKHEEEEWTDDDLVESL
- Sequence (P51948 whole entry partner): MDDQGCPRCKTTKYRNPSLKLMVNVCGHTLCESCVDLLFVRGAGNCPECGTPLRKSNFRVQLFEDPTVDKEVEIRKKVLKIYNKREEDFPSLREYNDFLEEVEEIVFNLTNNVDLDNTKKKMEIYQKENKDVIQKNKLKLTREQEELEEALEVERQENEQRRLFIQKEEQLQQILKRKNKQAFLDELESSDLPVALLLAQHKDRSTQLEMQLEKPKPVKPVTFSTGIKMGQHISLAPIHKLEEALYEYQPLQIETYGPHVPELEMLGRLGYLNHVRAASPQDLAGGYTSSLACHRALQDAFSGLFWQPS
- protocol_notes: In vitro CDK7 assay, potency of irreversible covalent inhibitors (kinact/KI)
- experimental_setup: CDK7 (20 nM enz.) (KI, μM), 20 nM enz.
reported_metric: Ki

>  <compound>
C=CC(=O)N1CC(N2CCC(c3cc(C#N)c4c(c3)Nc3ncnc(-c5cnn(C)c5)c3CO4)CC2)C1 [compound 74]

>  <assay_target>
CDK7/cyclinH/MAT1 trimeric complex (Homo sapiens (Human))

>  <reported_value>
0.132 µM

$$$$
>  <compound>
CC#CC(=O)N1CCC(N2CCN(c3cc(C)c4c(c3)Nc3ncnc(N5CCS(=O)(=O)CC5)c3CO4)CC2)CC1 [compound 136]

>  <assay_target>
CDK7/cyclinH/MAT1 trimeric complex (Homo sapiens (Human))

>  <reported_value>
0.0874 µM

$$$$
>  <compound>
C=CC(=O)N1CCC(N2CC(c3cc4c(c(C)n3)OCc3c(ncnc3N3CCS(=O)(=O)CC3)N4)C2)CC1 [compound 63]

>  <assay_target>
CDK7/cyclinH/MAT1 trimeric complex (Homo sapiens (Human))

>  <reported_value>
0.174 µM

$$$$
>  <compound>
C#Cc1cc(C2CN([C@H]3CCN(C(=O)C=C)C3)C2)cc2c1O[C@H](C)c1c(ncnc1N1CCS(=O)(=O)CC1)N2 [compound 193]

>  <assay_target>
CDK7/cyclinH/MAT1 trimeric complex (Homo sapiens (Human))

>  <reported_value>
0.156 µM

$$$$
